Where do the numbers come from? From paper PMC10698726.

Molecular target: OCT1 (Homo sapiens)
Sequence (O15245 1-554): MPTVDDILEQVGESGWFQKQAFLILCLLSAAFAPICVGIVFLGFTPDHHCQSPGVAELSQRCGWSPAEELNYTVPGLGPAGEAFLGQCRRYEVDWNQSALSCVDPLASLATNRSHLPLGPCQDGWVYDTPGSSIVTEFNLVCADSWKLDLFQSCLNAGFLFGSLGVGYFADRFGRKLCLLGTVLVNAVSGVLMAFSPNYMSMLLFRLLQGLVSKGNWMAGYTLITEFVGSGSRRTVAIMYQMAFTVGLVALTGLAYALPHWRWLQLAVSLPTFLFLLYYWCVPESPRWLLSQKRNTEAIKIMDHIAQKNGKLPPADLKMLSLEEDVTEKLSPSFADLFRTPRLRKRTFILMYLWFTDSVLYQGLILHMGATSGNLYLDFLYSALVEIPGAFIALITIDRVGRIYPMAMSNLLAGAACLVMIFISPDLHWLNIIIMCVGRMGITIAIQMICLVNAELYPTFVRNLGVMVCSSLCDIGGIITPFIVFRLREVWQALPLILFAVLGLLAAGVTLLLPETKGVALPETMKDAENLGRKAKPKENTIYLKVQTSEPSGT
Experiment: Inhibition of model substrate uptake in OCT1-overexpressing HEK293 cells
Assay type: cell-based
Parameters: expressed in transfected cells; host or cells: HEK293
Details: OCT1; 20 μM inhibitor, 2 μM (S,S)-ethambutol, 5 min
Procedure: Koepsell and Gorbulev (University of Würzburg, Germany). Fluorescence quantification was performed in technical duplicates.
Assign a class from recorded (S,S)-Ethambutol inhibition [%]; defined classes: low bin (below 20%), mid bin (20% to below 70%), high bin (70% or more)

compound: NC[C@@H](O)c1ccc(O)c(O)c1 [(S)-Norepinephrine]
category label: low bin

compound: N[C@@H]1CONC1=O [(R)-Cycloserine]
category label: low bin

compound: NC[C@H](O)c1ccc(O)c(O)c1 [(R)-Norepinephrine]
category label: low bin

compound: CN(C)CCO[C@@](C)(c1ccccc1)c1ccccn1 [(S)-Doxylamine]
category label: high bin

compound: O=C(OC1C[N+]2(CCCOc3ccccc3)CCC1CC2)C(O)(c1cccs1)c1cccs1 [(S)-Aclidinium]
category label: high bin

compound: CC(C)(C)NC[C@@H](O)c1ccc(O)c(CO)c1 [(S)-Salbutamol]
category label: low bin

compound: CNCC[C@H](Oc1ccc(C(F)(F)F)cc1)c1ccccc1 [(S)-Fluoxetine]
category label: high bin

compound: C#CCN[C@H]1CCc2ccccc21 [(S)-Rasagiline]
category label: mid bin

compound: CCN(CC)CC#CCOC(=O)[C@@](O)(c1ccccc1)C1CCCCC1 [(S)-Oxybutynine]
category label: high bin

compound: CCN1CCC[C@H]1CNC(=O)c1cc(S(=O)(=O)CC)c(N)cc1OC [(S)-Amisulpride]
category label: mid bin

compound: CC(C)NC[C@H](O)COc1cccc2ccccc12 [(S)-Propranolol]
category label: high bin

compound: OC[C@@H](O)CN1CCN(c2ccccc2)CC1 [(S)-Dropropizine]
category label: mid bin

compound: N[C@H]1CONC1=O [(S)-Cycloserine]
category label: low bin

* * *

target: OCT2 (Homo sapiens, UniProt O15244); assay: Inhibition of model substrate uptake in OCT2-overexpressing HEK293 cells; details: OCT2; 20 μM inhibitor, 2 μM N-ethyllidocaine, 5 min
Sequence (O15244 whole entry): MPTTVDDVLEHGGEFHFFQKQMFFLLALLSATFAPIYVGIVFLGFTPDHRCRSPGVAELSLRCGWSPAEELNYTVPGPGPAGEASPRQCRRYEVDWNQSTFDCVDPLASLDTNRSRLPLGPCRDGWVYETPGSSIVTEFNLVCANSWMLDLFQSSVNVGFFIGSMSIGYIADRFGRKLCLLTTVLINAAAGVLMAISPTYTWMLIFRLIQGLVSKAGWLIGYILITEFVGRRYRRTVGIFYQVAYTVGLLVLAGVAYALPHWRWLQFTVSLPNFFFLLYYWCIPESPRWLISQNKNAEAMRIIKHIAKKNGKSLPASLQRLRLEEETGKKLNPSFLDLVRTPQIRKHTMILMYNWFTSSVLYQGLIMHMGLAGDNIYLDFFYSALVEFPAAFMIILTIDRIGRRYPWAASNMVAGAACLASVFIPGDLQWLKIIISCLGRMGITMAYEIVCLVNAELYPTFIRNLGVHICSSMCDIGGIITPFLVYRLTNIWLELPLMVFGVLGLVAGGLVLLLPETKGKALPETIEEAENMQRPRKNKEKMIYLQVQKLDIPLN
Given measured N-Ethyllidocaine inhibition [%], output Satisfied if it is greater than or equal to 20% and Not satisfied if not.

compound: CCC(CO)NCCNC(CC)CO [(S,S)-Ethambutol]
category label: Not satisfied
--
compound: CC(C)(C)NC[C@@H](O)c1ccc(O)c(CO)c1 [(S)-Salbutamol]
category label: Not satisfied
--
compound: C#CCN(C)[C@H](C)Cc1ccccc1 [(R)-Deprenyl]
category label: Satisfied
--
compound: COc1ccc([C@@H](CN(C)C)C2(O)CCCCC2)cc1 [(S)-Venlafaxine]
category label: Not satisfied
--
compound: NC[C@@H](O)c1ccc(O)c(O)c1 [(S)-Norepinephrine]
category label: Not satisfied
--
compound: CCN(CC)CC#CCOC(=O)[C@@](O)(c1ccccc1)C1CCCCC1 [(S)-Oxybutynine]
category label: Satisfied
--
compound: CC(C)C[C@H](N(C)C)C1(c2ccc(Cl)cc2)CCC1 [(S)-Sibutramine]
category label: Satisfied
--
compound: COc1ccc([C@H](CN(C)C)C2(O)CCCCC2)cc1 [(R)-Venlafaxine]
category label: Satisfied
--
compound: CCN1CCC[C@H]1CNC(=O)c1cc(S(=O)(=O)CC)c(N)cc1OC [(S)-Amisulpride]
category label: Not satisfied
--
compound: CNCC[C@@H](Oc1ccc(C(F)(F)F)cc1)c1ccccc1 [(R)-Fluoxetine]
category label: Satisfied
--
compound: CC(C)C[C@@H](N(C)C)C1(c2ccc(Cl)cc2)CCC1 [(R)-Sibutramine]
category label: Satisfied
--
compound: N[C@H]1CONC1=O [(S)-Cycloserine]
category label: Not satisfied
--
compound: CN(C)CCO[C@](C)(c1ccccc1)c1ccccn1 [(R)-Doxylamine]
category label: Not satisfied
--
compound: OC[C@@H](O)CN1CCN(c2ccccc2)CC1 [(S)-Dropropizine]
category label: Not satisfied
--
compound: CCC(CO)NCCNC(CC)CO [(R,S)-Ethambutol]
category label: Not satisfied
--
compound: C#CCN[C@@H]1CCc2ccccc21 [(R)-Rasagiline]
category label: Satisfied
--
compound: CC(C)(C)NC[C@H](O)c1ccc(O)c(CO)c1 [(R)-Salbutamol]
category label: Not satisfied
--
compound: CC(C)NC[C@H](O)COc1cccc2ccccc12 [(S)-Propranolol]
category label: Satisfied
--
compound: CCN(CC)CC#CCOC(=O)[C@](O)(c1ccccc1)C1CCCCC1 [(R)-Oxybutynine]
category label: Satisfied
--
compound: C#CCN(C)[C@@H](C)Cc1ccccc1 [(S)-Deprenyl]
category label: Satisfied
--
compound: CN(C)CCO[C@@](C)(c1ccccc1)c1ccccn1 [(S)-Doxylamine]
category label: Not satisfied
